- systemUnderTest: Fuc(a1-2)Gal(b1-4)GlcNAc(b1-3)Gal(b1-4)GlcNAc
- methodDescription: glycan array binding signal (z-score within array); higher = stronger binding
- assayConditions: glycan notation: IUPAC condensed, linker removed
The entries come from a sample that favours the strongest signals as a whole.
readoutName: glycan array binding signal (z-score)

[[record]]
binder = "SRS2 (Toxoplasma gondii), O15695 (protein) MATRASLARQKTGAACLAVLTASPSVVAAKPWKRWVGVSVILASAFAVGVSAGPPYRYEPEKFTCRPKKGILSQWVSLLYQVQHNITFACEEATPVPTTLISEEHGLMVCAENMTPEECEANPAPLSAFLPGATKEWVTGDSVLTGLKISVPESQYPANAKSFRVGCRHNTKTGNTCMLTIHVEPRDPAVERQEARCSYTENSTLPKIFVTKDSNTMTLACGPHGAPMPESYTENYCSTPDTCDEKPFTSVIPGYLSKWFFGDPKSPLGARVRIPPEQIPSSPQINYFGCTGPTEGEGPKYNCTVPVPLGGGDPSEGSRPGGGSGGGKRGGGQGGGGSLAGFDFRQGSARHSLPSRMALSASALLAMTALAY"
readoutname = "glycan array binding signal (z-score)"
testresult = 0.699

[[record]]
binder = "FaeGac (Escherichia coli) (protein) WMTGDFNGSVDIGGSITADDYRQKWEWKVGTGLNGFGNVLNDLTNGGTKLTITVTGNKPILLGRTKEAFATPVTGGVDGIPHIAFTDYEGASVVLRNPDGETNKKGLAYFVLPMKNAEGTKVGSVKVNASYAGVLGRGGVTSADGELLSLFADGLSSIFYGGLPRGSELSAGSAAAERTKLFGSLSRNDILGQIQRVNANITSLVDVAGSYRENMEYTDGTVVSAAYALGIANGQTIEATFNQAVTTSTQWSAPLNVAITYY"
readoutname = "glycan array binding signal (z-score)"
testresult = -0.23

[[record]]
binder = "Epa11 (Candida glabrata) (protein) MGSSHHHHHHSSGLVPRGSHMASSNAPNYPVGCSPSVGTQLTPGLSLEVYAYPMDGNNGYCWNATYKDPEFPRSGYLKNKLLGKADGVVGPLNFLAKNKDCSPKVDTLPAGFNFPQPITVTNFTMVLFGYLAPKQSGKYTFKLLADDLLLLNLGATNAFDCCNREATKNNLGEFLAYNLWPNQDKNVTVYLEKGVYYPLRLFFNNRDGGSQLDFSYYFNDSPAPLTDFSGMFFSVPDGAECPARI"
readoutname = "glycan array binding signal (z-score)"
testresult = -0.92

[[record]]
binder = "Vd2LysM (Verticillium dahliae) (protein) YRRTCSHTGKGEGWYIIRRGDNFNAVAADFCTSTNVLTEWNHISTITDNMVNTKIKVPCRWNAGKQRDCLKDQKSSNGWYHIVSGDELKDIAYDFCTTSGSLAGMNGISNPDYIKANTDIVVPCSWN"
readoutname = "glycan array binding signal (z-score)"
testresult = 0.247

[[record]]
binder = "LecB PA7 (Pseudomonas aeruginosa) (protein) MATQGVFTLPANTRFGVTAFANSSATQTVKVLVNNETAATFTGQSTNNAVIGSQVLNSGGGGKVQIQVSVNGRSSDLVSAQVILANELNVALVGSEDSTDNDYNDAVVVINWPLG"
readoutname = "glycan array binding signal (z-score)"
testresult = 3.5

[[record]]
binder = "FedF (Escherichia coli), Q47212 (protein) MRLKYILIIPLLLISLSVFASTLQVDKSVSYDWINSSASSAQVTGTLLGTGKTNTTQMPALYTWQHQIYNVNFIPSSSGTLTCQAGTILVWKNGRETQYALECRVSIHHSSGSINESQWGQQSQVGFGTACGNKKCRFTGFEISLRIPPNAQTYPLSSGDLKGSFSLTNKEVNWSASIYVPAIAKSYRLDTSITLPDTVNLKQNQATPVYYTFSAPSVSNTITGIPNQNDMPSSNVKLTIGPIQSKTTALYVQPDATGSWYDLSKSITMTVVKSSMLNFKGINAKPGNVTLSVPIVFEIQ"
readoutname = "glycan array binding signal (z-score)"
testresult = -0.446

[[record]]
binder = "CBM40 CPF071 (Clostridium perfringens) (protein) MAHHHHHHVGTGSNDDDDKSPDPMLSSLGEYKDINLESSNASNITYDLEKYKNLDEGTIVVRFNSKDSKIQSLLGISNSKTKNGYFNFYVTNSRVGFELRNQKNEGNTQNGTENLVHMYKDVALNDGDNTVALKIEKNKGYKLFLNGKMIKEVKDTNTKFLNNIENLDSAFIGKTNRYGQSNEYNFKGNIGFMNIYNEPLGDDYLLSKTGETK"
readoutname = "glycan array binding signal (z-score)"
testresult = 0.231

